Test system: phosphorylation of p38 (p-p38)
Assay: Western blot of phosphorylated p38 in influenza-infected U937 cells
Assay type: cell-based, Human
Conditions: phosphorylation of p38, western blot; Table 4; read-out: IC50 p-p38
readout-name: pIC50
Scale explanation: pIC50 corresponds to minus log10 of a concentration expressed in moles per litre.

*Q* Please report the recorded pIC50 for "Cc1ccc(Nc2ncc3c(n2)N(C)C(=O)N(c2cc(NC(=O)c4cccc(C(F)(F)F)c4)ccc2C)C3)cn1" .
*A* 8.00

====

Test system: IL-8 production in influenza virus-infected U937 cells (H1N1)
Assay: cells
Type: cell-based, Human
Conditions: Homo sapiens, U-937
pIC50: −log10 of the molar value.
# label = Fulfilled if pIC50 >= 6 else Not fulfilled

molecular-string	label-class
CC(C)(C)Cn1c(N)nc2ccc(-c3[nH]c(C(C)(C)C)nc3-c3ccc(F)cc3)nc21	Fulfilled
O=C(NOC[C@H](O)CO)c1ccc(F)c(F)c1Nc1ccc(I)cc1F	Fulfilled
Cc1ccc(-n2nc(C(C)(C)C)cc2NC(=O)Nc2ccc(OCCN3CCOCC3)c3ccccc23)cc1	Not fulfilled

*Q* // inclusive: pIC50 at least 6? input: "Cc1ccc(C(=O)Nc2ccc(CN3CCN(C)CC3)c(C(F)(F)F)c2)cc1C#Cc1cnc2cccnn12"
*A* Fulfilled

*Q* // inclusive: pIC50 at least 6? input: "Cc1nc(Nc2ncc(C(=O)Nc3c(C)cccc3Cl)s2)cc(N2CCN(CCO)CC2)n1"
*A* Not fulfilled

*Q* // inclusive: pIC50 at least 6? input: "Cc1cc(Nc2nc(N[C@@H](C)c3ncc(F)cn3)ncc2Cl)n[nH]1"
*A* Not fulfilled

====

Assay: in vitro
Conditions: human, CC50, secondary screen, Supplemental Table 1
CC50 by entry:
Only the number, expressed in µM, is required.

compound	CC50 (µM)
O=C(Nc1ccc(-c2ccnc(Nc3ccc(N4CCOCC4)cc3)n2)cc1)C1CCCN1 (stereo not drawn) [XL019]	26.7
C=CC(=O)N1CCC(Oc2cc3c(Nc4ccc(Cl)c(Cl)c4F)ncnc3cc2OC)CC1 [Poziotinib (HM781-36B), Poziotinib]	24.1

Now let's try a different one.
*Q* Please report the recorded CC50 for COc1cc(Nc2ncc(F)c(Nc3ccc4c(n3)N(COP(=O)(O)O)C(=O)C(C)(C)O4)n2)cc(OC)c1OC [Fostamatinib (R788), Fostamatinib] .
*A* 40

====

Test system: U937 cells
Settings: secondary screen, Supplemental Table 1
Where a name gives a salt, the structure may show the parent alone.
CC50 by entry:

compound	CC50
COc1cc(Nc2ncc(F)c(Nc3ccc4c(n3)NC(=O)C(C)(C)O4)n2)cc(OC)c1OC [R406]	> 100 µM
CC(C)n1nc(-c2ccc3oc(N)nc3c2)c2c(N)ncnc21	5.9 µM
C=CC(=O)Nc1cccc(Nc2nc(Nc3ccc(Oc4ccnc(C(=O)NC)c4)cc3)ncc2F)c1	15.5 µM
Cc1ccc(NC(=O)c2cccc(C(C)(C)C#N)c2)cc1Nc1ccc2ncn(C)c(=O)c2c1	> 100 µM
CC(C)(C)c1cc(C=C(C#N)C#N)cc(C(C)(C)C)c1O	8.26 µM

*Q* // fetch U937 cells CC50 for COc1cc(Nc2ncc(F)c(Nc3ccc4c(n3)N(COP(=O)(O)O)C(=O)C(C)(C)O4)n2)cc(OC)c1OC [R788 (Fostamatinib) Disodium]
*A* 7.4 µM

*Q* // fetch U937 cells CC50 for C[C@@H]1CCN(C(=O)CC#N)C[C@@H]1N(C)c1ncnc2[nH]ccc12 [Tofacitinib (CP-690550) Citrate]
*A* > 100 µM
